# Tested on: HCV replicon cells
# METHOD DESCRIPTION: HCV EC50 determination, replicon luciferase assay
# Format: cell-based
# TEST CONDITIONS: Hepatitis C virus, 72 h; replicon cells, 3 days incubation, luciferase readout; read-out: EC50
OBSERVED PROPERTY: EC50

>>> endpoint_result("CCOC(=O)[C@H](Cc1c[nH]c2ccccc12)NP(=O)(OC[C@H]1O[C@@](C#N)(c2ccc3c(N)ncnn23)[C@](C)(F)[C@@H]1O)Oc1ccccc1 (stereo partly shown)")
"43 to 84 µM"
>>> endpoint_result("CCOC(=O)[C@@H](NP(=O)(OC[C@H]1O[C@@](C#N)(c2ccc3c(N)ncnn23)[C@](C)(F)[C@@H]1O)Oc1ccccc1)C(C)C (stereo partly shown)")
"67 to 70 µM"
>>> endpoint_result("CCOC(=O)[C@H](C)NP(=O)(OC[C@H]1O[C@@H](c2ccc3c(N)ncnn23)[C@](C)(F)[C@@H]1O)Oc1cccc2ccccc12 (stereo partly shown)")
"35 to 60 µM"

Let us examine a further case.
System HCV replicon cells. Read-out EC50. Item `CC(C)(C)C(=O)SCCOP(=O)(OCCSC(=O)C(C)(C)C)OC[C@H]1O[C@@H](c2cnc3c(N)nc(N)nn23)[C@](C)(F)[C@@H]1O` . Report value.
23 µM

* * *

# Tested on: HCV replicon cells
# METHOD DESCRIPTION: HCV EC50 determination, replicon luciferase assay
# Format: cell-based
# TEST CONDITIONS: Hepatitis C virus, 72 h; replicon cells, 3 days incubation, luciferase readout; read-out: EC50
# Description: Replicon cells were seeded in 96-well plates at a density of 8×10^3 cells per well in 100 μL of culture medium, excluding Geneticin. Compound was serially diluted in 100% DMSO and then added to the cells at a 1:200 dilution, achieving a final concentration of 0.5% DMSO and a total volume of 200 μL. […] Following the manufacturer's instruction, 100 μL of luciferase substrate was added to the lysed cells and luciferase activity was measured in a TopCount luminometer.
OBSERVED PROPERTY: EC50

Some entries whose results are on file:
>>> endpoint_result("CCOC(=O)CNP(=O)(OC[C@H]1O[C@@](C#N)(c2ccc3c(N)ncnn23)[C@](C)(F)[C@@H]1O)Oc1ccccc1 (stereo partly drawn)")
"1.93 to 25.5 µM"
>>> endpoint_result("CCOC(=O)[C@H](C)NP(=O)(OC[C@H]1O[C@@](C#N)(c2ccc3c(N)ncnn23)[C@](C)(F)[C@@H]1O)Oc1ccccc1 (stereo partly drawn)")
"1.4 to 4.3 µM"
>>> endpoint_result("CCCCCCCOC(=O)[C@H](C)NP1(=O)OC[C@H]2O[C@@](C#N)(c3ccc4c(N)ncnn34)[C@](C)(F)[C@@H]2O1 (stereo partly drawn)")
"9.7 to 10 µM"
>>> endpoint_result("CCOC(=O)[C@H](CCSC)NP(=O)(OC[C@H]1O[C@@](C#N)(c2ccc3c(N)ncnn23)[C@](C)(F)[C@@H]1O)Oc1ccccc1 (stereo partly drawn)")
"3.9 to 12 µM"
>>> endpoint_result("CCOC(=O)[C@H](C)NP(=O)(OC[C@H]1O[C@@](C#N)(c2ccc3c(N)ncnn23)[C@](C)(F)[C@@H]1O)Oc1cccc2ccccc12 (stereo partly drawn)")
"3.75 to 11.1 µM"
>>> endpoint_result("CCC(CC)COC(=O)C(C)(C)NP(=O)(OC[C@H]1O[C@@](C#N)(c2ccc3c(N)ncnn23)[C@](C)(F)[C@@H]1O)Oc1ccccc1 (stereo partly drawn)")
"8.4 to 19 µM"
>>> endpoint_result("C[C@@]1(F)[C@H](O)[C@@H](COP(=O)(O)NCCc2c[nH]c3ccccc23)O[C@@]1(C#N)c1ccc2c(N)ncnn12")
"31 to 45 µM"
>>> endpoint_result("CCOC(=O)[C@H](Cc1ccccc1)NP(=O)(OC[C@H]1O[C@@](C#N)(c2ccc3c(N)ncnn23)[C@](C)(F)[C@@H]1O)Oc1ccccc1 (stereo partly drawn)")
"9.8 to 31 µM"

Consider the additional compound presented here.
Item CC(C)OP1(=O)OC[C@H]2O[C@@](C#N)(c3ccc4c(N)ncnn34)[C@](C)(F)[C@@H]2O1 (stereo partly drawn) : provide EC50
40.3 to 70.5 µM
